- SYSTEM TESTED: PPARδ (Homo sapiens, UniProt Q03181)
- Construct: expressed in transfected cells; host or cells: COS-7
- Sequence (Q03181 211-439): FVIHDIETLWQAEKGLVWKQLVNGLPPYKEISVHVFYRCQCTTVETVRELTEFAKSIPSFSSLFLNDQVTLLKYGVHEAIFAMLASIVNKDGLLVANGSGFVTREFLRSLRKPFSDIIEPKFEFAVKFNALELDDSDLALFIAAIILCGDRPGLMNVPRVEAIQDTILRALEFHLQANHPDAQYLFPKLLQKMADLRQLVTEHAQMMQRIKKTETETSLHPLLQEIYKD
- ASSAY: PPAR transactivation assay in COS-7 cells (Gal4-hPPAR-LBD, luciferase)
- Assay type: cell-based
- CONDITION NOTES: i.a. = inactive
ASSAY READOUT: EC50 PPARδ

> print(dat)
                                   compound  assay.readout           test.value
1  CCC(Cc1ccc(C(=O)NCc2ccccc2OC(F)(F)F)cc1)C(=O)O (stereo not drawn)     EC50 PPARδ  n.t. i.a. i.a. n.t.
2  CCC(Cc1ccc(C(=O)NCc2ccc(C(F)(F)F)cc2)cc1)C(=O)O (stereo not drawn)     EC50 PPARδ  n.t. i.a. i.a. n.t.
3  CCOC(=O)C(CC)Cc1ccc(C(=O)NCc2ccccc2C(F)(F)F)cc1 (stereo not drawn)     EC50 PPARδ                 i.a.
4  CCC(Cc1ccc(C(=O)NCc2ccc(F)cc2C(F)(F)F)cc1)C(=O)O (stereo not drawn) [Compound 13c]     EC50 PPARδ  n.t. i.a. i.a. n.t.
5  CC/C(=C\c1ccc(C(=O)NCc2ccccc2C(F)(F)F)cc1)C(=O)O     EC50 PPARδ                 i.a.
6  CCOC(=O)CCc1ccc(C(=O)NCc2ccccc2C(F)(F)F)cc1 [Compound 16b]     EC50 PPARδ                 i.a.
7  CCC(Cc1ccc(C(=O)NCc2ccc(OC)cc2)cc1)C(=O)O (stereo not drawn) [Compound 10c]     EC50 PPARδ  n.t. i.a. i.a. n.t.
8  CON(C)C(=O)/C=C/c1ccc(C(=O)NCc2ccccc2C(F)(F)F)cc1     EC50 PPARδ                 i.a.

====

// values below are reported inhibition at 10 µM
- SYSTEM TESTED: recombinant human sEH (Homo sapiens)
- Sequence (P34913 1-555): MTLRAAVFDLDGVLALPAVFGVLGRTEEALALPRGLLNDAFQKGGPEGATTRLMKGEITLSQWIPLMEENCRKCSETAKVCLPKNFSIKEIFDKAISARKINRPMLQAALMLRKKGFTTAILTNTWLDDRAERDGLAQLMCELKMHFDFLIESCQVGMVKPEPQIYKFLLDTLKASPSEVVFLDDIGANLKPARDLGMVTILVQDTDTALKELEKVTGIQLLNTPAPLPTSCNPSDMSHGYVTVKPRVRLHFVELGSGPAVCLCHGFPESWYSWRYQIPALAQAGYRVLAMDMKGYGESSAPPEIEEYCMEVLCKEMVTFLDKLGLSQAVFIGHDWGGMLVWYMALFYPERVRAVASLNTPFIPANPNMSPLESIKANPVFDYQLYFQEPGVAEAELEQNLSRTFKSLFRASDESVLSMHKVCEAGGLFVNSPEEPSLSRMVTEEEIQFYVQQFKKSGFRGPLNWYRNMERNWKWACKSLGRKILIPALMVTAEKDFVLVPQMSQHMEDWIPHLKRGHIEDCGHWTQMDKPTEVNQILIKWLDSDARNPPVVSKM
- ASSAY: biochemical
- CONDITION NOTES: at 10 μM; read-out: sEH inhibition @10 μM (converted)
ASSAY READOUT: inhibition at 10 µM (%)

> print(dat)
                                   compound  result.units  test.value
1  CCC(Cc1ccc(C(=O)NCc2ccccc2C)cc1)C(=O)O (stereo not drawn)             %          25
2  CCC(Cc1ccc(C(=O)NCc2ccc(F)cc2)cc1)C(=O)O (stereo not drawn)             %          28
3  CCC(Cc1ccc(C(=O)NCc2ccc(OC)cc2)cc1)C(=O)O (stereo not drawn) [Compound 10c]             %          34
4  CCC(Cc1ccc(C(=O)NCc2ccccc2Br)cc1)C(=O)O (stereo not drawn)             %          34
5  CCC(Cc1ccc(C(=O)NCc2ccccc2Cl)cc1)C(=O)O (stereo not drawn)             %          20
6  CCC(Cc1ccc(C(=O)NCc2ccccc2OC(F)(F)F)cc1)C(=O)O (stereo not drawn)             %          23

====

- SYSTEM TESTED: PPARα (Homo sapiens, UniProt Q07869)
- Construct: expressed in transfected cells; host or cells: COS-7
- Sequence (Q07869 239-466): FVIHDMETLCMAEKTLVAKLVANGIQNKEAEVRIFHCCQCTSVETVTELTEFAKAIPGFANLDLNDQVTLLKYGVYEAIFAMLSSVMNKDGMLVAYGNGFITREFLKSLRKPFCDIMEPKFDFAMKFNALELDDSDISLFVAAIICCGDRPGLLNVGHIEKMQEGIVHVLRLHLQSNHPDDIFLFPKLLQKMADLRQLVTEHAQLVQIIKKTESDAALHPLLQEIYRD
- Assay type: cell-based
ASSAY READOUT: EC50 PPARα

> print(dat)
                                   compound           test.value
1  O=C(O)c1cccc(-c2ccc(C(=O)NCc3ccccc3C(F)(F)F)cc2)c1 [Compound 26]                 i.a.
2  CCOC(=O)C(CC)Cc1ccc(C(=O)NCc2ccccc2)cc1 (centres unmarked) [Compound 2b]  n.t. i.a. i.a. n.t.
3  CCOC(=O)C(CC)Cc1ccc(C(=O)NCc2ccc(F)cc2)cc1 (centres unmarked) [Compound 7b]  n.t. i.a. i.a. n.t.
4  CCC(Cc1ccc(C(=O)NCc2ccccc2)cc1)C(=O)O (centres unmarked) [Compound 2c]  n.t. i.a. i.a. n.t.
5  O=C(O)c1ccc(-c2ccc(C(=O)NCc3ccccc3C(F)(F)F)cc2)cc1 [Compound 25]                 i.a.

====

- SYSTEM TESTED: recombinant human sEH (Homo sapiens, UniProt P34913)
- ASSAY: biochemical
- CONDITION NOTES: read-out: IC50 sEH (converted)
// values below are reported log10(IC50)
ASSAY READOUT: log10(IC50) (log10 of the value in nM)

> print(dat)
                                    molecule  assay.readout  test.value
 1  O=C(O)CCc1ccc(C(=O)NCc2ccccc2C(F)(F)F)cc1 [Compound 16c]    log10(IC50)        3.95
 2  O=C(NCc1ccccc1C(F)(F)F)c1ccc(-c2nnn[nH]2)cc1    log10(IC50)        3.70
 3  CC/C(=C\c1ccc(C(=O)NCc2ccccc2C)cc1)C(=O)O    log10(IC50)        4.00
 4  CC/C(=C\c1ccc(C(=O)NCc2ccccc2C(F)(F)F)cc1)C(=O)O    log10(IC50)        2.08
 5  O=C(NCc1ccccc1C(F)(F)F)c1ccc(CC(C(=O)O)c2ccccc2)cc1 (stereo not drawn) [Compound 19c]    log10(IC50)        3.40
 6  CC/C(=C\c1ccc(C(=O)NCc2ccccc2Br)cc1)C(=O)O    log10(IC50)        3.38
 7  CON(C)C(=O)/C=C/c1ccc(C(=O)NCc2ccccc2C(F)(F)F)cc1    log10(IC50)        1.85
 8  CCC(Cc1cccc(C(=O)NCc2ccccc2C(F)(F)F)c1)C(=O)O (stereo not drawn) [Compound 15c]    log10(IC50)        2.95
 9  CC/C(=C\c1ccc(C(=O)NCc2ccc(Cl)cc2)cc1)C(=O)O [Compound 11d]    log10(IC50)        3.70
10  CC/C(=C\c1ccc(C(=O)NCc2ccc(OC)cc2)cc1)C(=O)O [Compound 10d]    log10(IC50)        4.11
11  CC/C(=C\c1ccc(C(=O)NCc2ccc(Oc3ccccc3)cc2)cc1)C(=O)O [Compound 12d]    log10(IC50)        2.90
12  CCOC(=O)C(C)Cc1ccc(C(=O)NCc2ccccc2C(F)(F)F)cc1 (stereo not drawn) [Compound 17b]    log10(IC50)        2.40
13  CCOC(=O)/C(C)=C/c1ccc(C(=O)NCc2ccccc2C(F)(F)F)cc1 [Compound 17a]    log10(IC50)        2.00
14  CCOC(=O)/C(=C/c1ccc(C(=O)NCc2ccc(F)cc2)cc1)CC    log10(IC50)        1.79
15  CCOC(=O)/C=C/c1ccc(C(=O)NCc2ccccc2C(F)(F)F)cc1 [Compound 16a]    log10(IC50)        2.11
16  CC/C(=C\c1ccc(C(=O)NCc2ccc(F)cc2)cc1)C(=O)O    log10(IC50)        3.83
17  CC/C(=C\c1cccc(C(=O)NCc2ccccc2C(F)(F)F)c1)C(=O)O [Compound 15d]    log10(IC50)        2.60
18  CCOC(=O)/C(=C/c1ccc(C(=O)NCc2ccccc2OC(F)(F)F)cc1)CC    log10(IC50)        1.78

====

- SYSTEM TESTED: PPARδ (Homo sapiens, UniProt Q03181)
- Construct: expressed in transfected cells; host or cells: COS-7
- ASSAY: PPAR transactivation assay in COS-7 cells (Gal4-hPPAR-LBD, luciferase)
- Type: cell-based
- CONDITION NOTES: i.a. = inactive
ASSAY READOUT: EC50 PPARδ

> print(dat)
                                   molecule           test.value
1  CCOC(=O)C(Cc1ccc(C(=O)NCc2ccccc2C(F)(F)F)cc1)c1ccccc1 (stereo not drawn) [Compound 19b]                 i.a.
2  CCOC(=O)C(CC)Cc1ccc(C(=O)NCc2ccc(C(F)(F)F)cc2)cc1 (stereo not drawn)  n.t. i.a. i.a. n.t.
3  CCOC(=O)C(CC)Cc1ccc(C(=O)NCc2ccc(OC(F)(F)F)cc2)cc1 (stereo not drawn)  n.t. i.a. i.a. n.t.
4  CCOC(=O)C(CC)Cc1ccc(C(=O)NCc2ccc(Cl)cc2)cc1 (stereo not drawn) [Compound 11b]  n.t. i.a. i.a. n.t.
5  CCCC(Cc1ccc(C(=O)NCc2ccccc2C(F)(F)F)cc1)C(=O)OCC (stereo not drawn) [Compound 18b]                 i.a.
6  CCC(Cc1ccc(C(=O)NCc2ccc(OC)cc2C(F)(F)F)cc1)C(=O)O (stereo not drawn) [Compound 14c]  n.t. i.a. i.a. n.t.
7  CCOC(=O)C(CC)Cc1ccc(C(=O)NCc2ccccc2C)cc1 (stereo not drawn)  n.t. i.a. i.a. n.t.
8  O=C(O)/C=C/c1ccc(C(=O)NCc2ccccc2C(F)(F)F)cc1 [Compound 16d]                 i.a.
9  O=C(NCc1ccccc1C(F)(F)F)c1ccc(CC(C(=O)O)c2ccccc2)cc1 (stereo not drawn) [Compound 19c]                 i.a.
